# METHOD NOTES: Metabolic stability in monkey liver microsomes assessed as parent compound remaining at 0.5 mg/mL incubated for 0.5 hrs
# Type: ADME, Macaca mulatta, Microsome
# REPORTED CONDITIONS: rhesus monkey, read-out: Stabilty
Simple rule here: remaining at 0.5 h less than 50% is true, otherwise false.

// below: answered molecules
CC(=O)N1CC2(CC(NC(=O)c3cc(-c4ccc(F)cc4)no3)C2)C1	false
CN(C)C(=O)CCN1CCn2cc(-c3ccc(F)cc3)cc2C1=O	true
CC(=O)N1CC(CNC(=O)c2cc(-c3ccccc3)no2)C1	true
CN(C)C(=O)CCNC(=O)c1cc(-c2ccccc2F)no1	true
CN(C)C(=O)CCNC(=O)C1CSC(c2ccc(F)cc2)N1 (mixture of isomers)	true
CN(C)C(=O)CNC(=O)c1cc(-c2ccc(F)cc2)no1	true

Could you now consider this next molecule?
Q: Please indicate whether the reported remaining at 0.5 h of CS(=O)(=O)N1CC2(CC(NC(=O)c3cc(-c4ccccc4)no3)C2)C1 is strictly below 50%.
Result: false

----------
# METHOD NOTES: Metabolic stability in human liver microsomes assessed as parent compound remaining at 0.5 mg/mL incubated for 0.5 hrs
# Assay type: ADME, Microsome
# REPORTED CONDITIONS: read-out: Stabilty
The following molecules are shown together with reported remaining at 0.5 h values.

Use these answered entries as a reference point.
CN(C)C(=O)CCNC(=O)c1cc(-c2ccccc2F)no1	> 100%
CN(C)C(=O)CCN1CCc2c(cc(-c3ccc(F)cc3)n2C)C1=O	> 100%

Please examine the following record next.
Q: # get_value(readout='remaining at 0.5 h', item= CC(=O)N1CC2(CC(NC(=O)c3cc(-c4ccccc4)no3)C2)C1 )
Result: > 100%

----------
Listing of entries alongside the reported remaining at 0.5 h.
# METHOD NOTES: Metabolic stability in monkey liver microsomes assessed as parent compound remaining at 0.5 mg/mL incubated for 0.5 hrs
# Assay type: ADME, Macaca mulatta, Microsome
# REPORTED CONDITIONS: rhesus monkey, read-out: Stabilty
Entry rule: numbers only, all in %.

CN(C)C(=O)CCNC(=O)c1cc(-c2ccccc2)no1	4.7
CN(C)C(=O)CCN1CCc2c(cc(-c3ccc(F)cc3)n2C)C1=O	42
CCC(=O)N1CC2(CC(NC(=O)c3cc(-c4ccccc4)no3)C2)C1	69

Q: Quick one: remaining at 0.5 h for CC(CNC(=O)c1cc(-c2ccc(F)cc2)no1)C(=O)N(C)C (racemic) ?
Result: 52

Q: So what does the record say about remaining at 0.5 h for CN(C)C(=O)CCN1CCc2[nH]c(-c3ccc(F)cc3)cc2C1=O ?
Result: 39

Q: Consider the molecule shown here: CC(=O)N1CC2(CC(NC(=O)c3cc(-c4ccccc4)no3)C2)C1 What is its recorded remaining at 0.5 h?
Result: 64

Q: For the molecule CCN1CC2(CC(NC(=O)c3cc(-c4ccccc4)no3)C2)C1 , what remaining at 0.5 h is on record?
Result: 87
